This collection of values is drawn from patent US20080057063A1.

Listing: Assay 2 % Inhibition (HT29 adhesion to TGFβLAP) of selected binders
- target or system: human αVβ6 integrin on cells (human, UniProt P06756 31-1048; P18564 22-788)
- Sequence (P06756 31-1048, chain 1 of 2): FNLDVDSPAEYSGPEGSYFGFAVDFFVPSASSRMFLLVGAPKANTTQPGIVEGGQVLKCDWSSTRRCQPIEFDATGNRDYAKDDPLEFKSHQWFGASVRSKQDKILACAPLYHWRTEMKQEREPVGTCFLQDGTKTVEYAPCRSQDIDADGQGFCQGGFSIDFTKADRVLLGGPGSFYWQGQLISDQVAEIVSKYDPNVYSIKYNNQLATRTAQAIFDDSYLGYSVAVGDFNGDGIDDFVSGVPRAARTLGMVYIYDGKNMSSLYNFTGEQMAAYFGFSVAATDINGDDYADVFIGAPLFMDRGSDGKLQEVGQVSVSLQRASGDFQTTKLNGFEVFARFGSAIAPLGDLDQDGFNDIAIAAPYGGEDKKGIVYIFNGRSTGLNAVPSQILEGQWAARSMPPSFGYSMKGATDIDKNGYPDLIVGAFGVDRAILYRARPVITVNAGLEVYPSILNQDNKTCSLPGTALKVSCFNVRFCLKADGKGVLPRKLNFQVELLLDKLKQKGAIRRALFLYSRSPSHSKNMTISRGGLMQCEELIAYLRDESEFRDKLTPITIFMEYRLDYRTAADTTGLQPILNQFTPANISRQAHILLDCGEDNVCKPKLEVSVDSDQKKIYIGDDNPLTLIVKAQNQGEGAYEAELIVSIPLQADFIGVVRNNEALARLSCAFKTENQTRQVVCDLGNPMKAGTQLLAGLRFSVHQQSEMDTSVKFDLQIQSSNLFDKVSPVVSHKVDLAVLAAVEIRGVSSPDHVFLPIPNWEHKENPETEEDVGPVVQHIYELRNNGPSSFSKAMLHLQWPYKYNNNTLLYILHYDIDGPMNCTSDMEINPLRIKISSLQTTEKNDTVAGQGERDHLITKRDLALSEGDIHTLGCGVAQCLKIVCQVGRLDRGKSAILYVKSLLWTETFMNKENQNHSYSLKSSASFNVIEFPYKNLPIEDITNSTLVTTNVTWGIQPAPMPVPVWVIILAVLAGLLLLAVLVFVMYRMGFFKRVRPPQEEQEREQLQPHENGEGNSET
- Sequence (P18564 22-788, chain 2 of 2): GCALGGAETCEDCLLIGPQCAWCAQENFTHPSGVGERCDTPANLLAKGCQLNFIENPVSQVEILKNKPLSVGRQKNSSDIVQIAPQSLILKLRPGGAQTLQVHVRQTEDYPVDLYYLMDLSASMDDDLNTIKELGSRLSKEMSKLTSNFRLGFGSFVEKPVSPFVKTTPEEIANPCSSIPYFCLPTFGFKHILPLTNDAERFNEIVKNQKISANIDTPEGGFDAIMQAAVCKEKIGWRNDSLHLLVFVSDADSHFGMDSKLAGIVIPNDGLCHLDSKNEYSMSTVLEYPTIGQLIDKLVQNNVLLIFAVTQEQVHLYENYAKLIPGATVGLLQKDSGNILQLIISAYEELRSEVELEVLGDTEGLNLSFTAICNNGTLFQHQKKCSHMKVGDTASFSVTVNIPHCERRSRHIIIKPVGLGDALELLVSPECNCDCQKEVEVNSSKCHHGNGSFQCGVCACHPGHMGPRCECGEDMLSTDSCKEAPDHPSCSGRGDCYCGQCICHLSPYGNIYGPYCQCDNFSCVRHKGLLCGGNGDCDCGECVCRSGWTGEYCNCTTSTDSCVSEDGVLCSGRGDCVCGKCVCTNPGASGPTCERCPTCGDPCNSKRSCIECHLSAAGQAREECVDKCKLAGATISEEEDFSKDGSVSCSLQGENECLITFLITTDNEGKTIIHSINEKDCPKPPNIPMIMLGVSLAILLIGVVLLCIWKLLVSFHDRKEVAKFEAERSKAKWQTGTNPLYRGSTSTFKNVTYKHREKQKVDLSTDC
- assay procedure: cell-based or functional assay
Output spec: scalar in %, unitless text.

[ask] Give the measured Assay 2 % Inhibition (HT29 adhesion to TGFβLAP) of sc 298 (antibody, V domains shown) VH: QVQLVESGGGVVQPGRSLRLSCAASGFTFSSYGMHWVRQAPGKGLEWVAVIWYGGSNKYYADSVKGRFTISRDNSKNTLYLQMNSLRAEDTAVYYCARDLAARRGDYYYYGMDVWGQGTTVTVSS VL: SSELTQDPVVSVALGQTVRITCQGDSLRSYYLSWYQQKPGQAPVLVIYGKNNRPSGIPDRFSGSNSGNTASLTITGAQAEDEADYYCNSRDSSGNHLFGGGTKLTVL .
[reply] 102

[ask] Please do the same for sc 161 (antibody, V domains shown) VH: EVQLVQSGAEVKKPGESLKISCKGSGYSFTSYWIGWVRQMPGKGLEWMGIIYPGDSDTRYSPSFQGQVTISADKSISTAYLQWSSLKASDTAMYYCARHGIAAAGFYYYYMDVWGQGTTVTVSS VL: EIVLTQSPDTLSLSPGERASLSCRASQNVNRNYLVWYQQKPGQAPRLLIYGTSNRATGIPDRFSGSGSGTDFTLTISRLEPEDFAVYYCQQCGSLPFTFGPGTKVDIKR as well.
[reply] 106

[ask] Please do the same for sc 254 (antibody, V domains shown) VH: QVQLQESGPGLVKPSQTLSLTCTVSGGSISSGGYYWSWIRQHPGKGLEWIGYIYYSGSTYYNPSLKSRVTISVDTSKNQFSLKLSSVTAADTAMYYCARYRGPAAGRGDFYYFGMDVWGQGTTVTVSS VL: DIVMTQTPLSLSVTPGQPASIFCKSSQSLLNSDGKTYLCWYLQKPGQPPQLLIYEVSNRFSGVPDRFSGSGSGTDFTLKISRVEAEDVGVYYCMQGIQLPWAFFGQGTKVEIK as well.
[reply] 106
